Test system: RXF 631
procedureText: NCI tumour cell line growth inhibition, 48 h
Activity calls are given as the source filed them. No stated cut-off is given here; in the data, active = GI50 up to about 1.1 µM and inactive = higher.
assayEndpoint: GI50

Study these solved cases before continuing.
Cc1cccc2cc3cccc(C(=O)NCCN(C)C)c3nc12; 0.0538 µM (active)
CCCCCCC(C)CCCCCCCCCCC(=O)O (centres undefined); > 100 µM (inactive)
COC(=O)CC1CC2(C(=O)OC)c3[nH]c4ccccc4c3CCN2C1=O (centres undefined); 17.5 µM (inactive)
COc1ccc(S(=O)(=O)Nc2ccccc2C(=O)O)cc1; > 100 µM (inactive)
N/C(=N\O)N/N=C/c1cccc(F)c1; 26.1 µM (inactive)
CS(=O)(=O)OC1CCC2(C#N)CCC1C2=O (centres undefined); > 100 µM (inactive)
COc1ccc(C(=O)C(c2ccc(OC)cc2)C2(O)C(=O)Nc3ccccc32)cc1 (centres undefined); > 100 µM (inactive)
COc1ccc(NCc2cc(OC)cc(OC)c2)cc1; 10.5 µM (inactive)
CCCn1c(SCC)c2ccccc2c1-c1nc(F)nc(F)n1; > 100 µM (inactive)
O=C1/C(=C/c2ccc(O)cc2)CCC1CNc1ccc(Cl)cc1 (centres undefined); 8.89 µM (inactive)

-- ask What does the data say about its GI50? Entry: O=CC1=CCCN(CCc2c[nH]c3ccccc23)C1
-- reply 47 µM (inactive)

-- ask Could you share which GI50 value was measured for Cc1cccc(NC(=O)C(=O)C(C2OC(=O)c3ccccc32)[N+](=O)[O-])c1C (centres undefined) ?
-- reply 5.98 µM (inactive)

-- ask Please look up its GI50: O=C1OC(=O)c2c1nc1ccccc1c2-c1ccccc1
-- reply > 100 µM (inactive)

Values were extracted from ChEMBL document CHEMBL1201862.
